Protocol: physchem

{"Mol Smiles": "COc1cccc2c1C(=O)c1c(O)c3c(c(O)c1C2=O)C[C@@](O)(C(=O)CO)C[C@@H]3O[C@H]1C[C@H](N)[C@H](O)[C@H](C)O1", "chromatographic logP": 0.68}

* * *

Parameter: pIC50. Scope: all listed entries.
Test system: patient-derived VMC23 cell line (epithelioid MPM)
Protocol: MTT cytotoxicity assay, 72 h, VMC23
Format: cell-based, human
Protocol Conditions: exposure time 72 h
pIC50: −log10 of the molar value.

{"Compound": "F[P-](F)(F)(F)(F)F.c1cc[c]2c(c1)Cc1cccc[n+]1[Au-]21[S]C(=[N+]2CCCC2)[S]1 (stereo not shown)", "pIC50": 6.01}
{"Compound": "CC[N+](CC)=C1[S][Au-]2([S]1)[c]1ccccc1C(OC)c1cccc[n+]12.F[P-](F)(F)(F)(F)F (racemic)", "pIC50": 5.14}
{"Compound": "CCCC[N+](CCCC)=C1[S][Au-]2([S]1)[c]1ccccc1C(OC)c1cccc[n+]12.F[P-](F)(F)(F)(F)F (racemic)", "pIC50": 5.60}
{"Compound": "COC1c2cccc[c]2[Au-]2([S]C(=[N+](C)C)[S]2)[n+]2ccccc21.F[P-](F)(F)(F)(F)F (racemic)", "pIC50": 5.33}
{"Compound": "F[P-](F)(F)(F)(F)F.O=C1c2cccc[c]2[Au-]2([S]C(=[N+]3CCCCCC3)[S]2)[n+]2ccccc21 (stereo not shown)", "pIC50": 5.85}
{"Compound": "CC[N+](=C1[S][Au-]2([S]1)[c]1ccccc1Nc1cccc[n+]12)c1ccccc1.F[P-](F)(F)(F)(F)F (stereo not shown)", "pIC50": 6.47}
{"Compound": "F[P-](F)(F)(F)(F)F.c1cc[c]2c(c1)-c1cccc[n+]1[Au-]21[S]C(=[N+]2CCCCC2)[S]1 (stereo not shown)", "pIC50": 5.85}
